# Assay explanation: Cell Viability - H-4-II-E (AID 543);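 note: cells exposed to compound for 40 hours; nearly all actives have a fitted effect of over 35% in size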
# Setup conditions: H-4-II-E rat hepatoma viability; series mostly up to 92.2 µM
Inconclusive results are not listed. The source made the active and inactive calls. Calls come from the whole dose curve; as a rule, active = well fitted cell-killing curve with a large enough effect; inconclusive = small, poorly fitted or top-dose-only effect; inactive = flat fitted curve, though single readings scatter.
Labels: active, inactive

>>> print(df.to_string())
                                    compound  assigned_label
 0  COc1cc2c(c(OC)c1OC)-c1ccc(OC)c(=O)cc1[C@@H](NC(C)=O)CC2          active
 1                Cn1c(=O)c2c(ncn2C)n(C)c1=O        inactive
 2             COc1ccc2[nH]cc(CCNC(C)=O)c2c1        inactive
 3                CCC1(c2ccccc2)C(=O)NCNC1=O        inactive
 4  Cc1cn([C@H]2C=C[C@@H](CO)O2)c(=O)[nH]c1=O        inactive
 5                   O=c1[nH]cc(F)c(=O)[nH]1          active
 6  CC(C)NCC(O)c1ccc(O)c(O)c1 (stereo not drawn)        inactive
 7                Cn1c(=O)c2[nH]cnc2n(C)c1=O        inactive
 8        NS(=O)(=O)c1cc2c(cc1Cl)NCNS2(=O)=O        inactive
 9  Cc1cn([C@H]2C[C@H](N=[N+]=[N-])[C@@H](CO)O2)c(=O)[nH]c1=O        inactive
10       Nc1ccn([C@H]2CC[C@@H](CO)O2)c(=O)n1        inactive
11  CC(C)C(=O)Nc1ccc([N+](=O)[O-])c(C(F)(F)F)c1          active
12       N[C@@H](Cc1c[nH]c2ccc(O)cc12)C(=O)O        inactive

###

# Assay explanation: Quantitative high throughput screen for delayed death inhibitors of the malarial parasite plastid, 96 hour incubation (AID 488745); note: nearly all actives have a fitted effect of over 70% in size
# Setup conditions: Plasmodium falciparum growth; series mostly up to 28.7 µM
Inconclusive results are not listed. The source made the active and inactive calls. The call rests on the fitted dose curve; in most records, active means well fitted inhibition curve with a large enough effect; inconclusive means small, poorly fitted or top-dose-only effect, or effect the other way; inactive means no such curve, though single readings can be large or run the other way.
Labels: Y for active, N for inactive

                                    compound  assigned_label
 0                              NCCCCCC(=O)O               N
 1  CC(COc1ccccc1)N(CCCl)Cc1ccccc1 (stereo unspecified)               N
 2  Clc1ccc(C(c2ccccc2Cl)C(Cl)Cl)cc1 (stereo unspecified)               N
 3        Cc1cc(C(C)(C)C)c(O)c(C)c1CC1=NCCN1               N
 4  CC(C(=O)O)c1cccc(C(=O)c2ccccc2)c1 (stereo unspecified)               N
 5                     NC12CC3CC(CC(C3)C1)C2               N
 6  O=C(C1CCCCC1)N1CC(=O)N2CCc3ccccc3C2C1 (stereo unspecified)               N
 7  NC(CO)C(=O)NNCc1ccc(O)c(O)c1O (stereo unspecified)               N
 8  CC(C)NCC(O)c1ccc(O)c(O)c1 (stereo unspecified)               N
 9           Cc1cc(C(C)(C)C)cc(C)c1CC1=NCCN1               N
10  CN(Cc1cnc2nc(N)nc(N)c2n1)c1ccc(C(=O)N[C@@H](CCC(=O)O)C(=O)O)cc1               N
11               CN(C)CCOC(c1ccccc1)c1ccccc1               N
12  CC(C)Cc1ccc(C(C)C(=O)O)cc1 (stereo unspecified)               N
13  CS(=O)(=O)Nc1ccc([N+](=O)[O-])cc1Oc1ccccc1               N
14  Cc1cnc(C(=O)NCCc2ccc(S(=O)(=O)NC(=O)NC3CCCCC3)cc2)cn1               N
15               NC(=O)OCC(COC(N)=O)c1ccccc1               N
16        NS(=O)(=O)c1cc2c(cc1Cl)NCNS2(=O)=O               N
17  COc1cc2c(c(OC)c1OC)-c1ccc(OC)c(=O)cc1[C@@H](NC(C)=O)CC2               N
18      CN1CCC(=C2c3ccccc3CC(=O)c3sccc32)CC1               N
19  O=C(CCCN1CCC(O)(c2ccc(Cl)cc2)CC1)c1ccc(F)cc1               Y
20                                  NC(=O)NO               N
21  Cc1ccccc1N1C(=O)c2cc(S(N)(=O)=O)c(Cl)cc2NC1C (stereo unspecified)               N
22              CCOC(=O)C(C)(C)Oc1ccc(Cl)cc1               N
23               CC12CC3CC(C)(C1)CC(N)(C3)C2               N
24  CCCCc1oc2ccccc2c1C(=O)c1cc(I)c(OCCN(CC)CC)c(I)c1               Y
25                Cn1c(=O)c2c(ncn2C)n(C)c1=O               N

###

# Assay explanation: qHTS of pediatric cancer cell lines to identify multiple opportunities for drug repurposing: Confirmatory screen for Rh18 cells (AID 1347125);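 note: cells exposed to compound for 48 h; nearly all actives have a fitted effect of over 55% in size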
# Setup conditions: Rh18 rhabdomyosarcoma cells, viability; series mostly up to 45.9 µM
Inconclusive results are not listed. Activity calls are given as the source filed them. Calls come from the whole dose curve; as a rule, active = well fitted cell-killing curve with a large enough effect; inconclusive = small, poorly fitted or top-dose-only effect, or effect the other way; inactive = flat fitted curve, though single readings scatter.
Possible outcomes: active, inactive

                                   compound  assigned_label
0  CC(C)Cc1ccc(C(C)C(=O)O)cc1 (stereo not given)        inactive
1                CCC1(c2ccccc2)C(=O)NCNC1=O        inactive
2  COc1cc2c(c(OC)c1OC)-c1ccc(OC)c(=O)cc1[C@@H](NC(C)=O)CC2        inactive
3  O=C(Nc1ccc([N+](=O)[O-])cc1Cl)c1cc(Cl)ccc1O          active
4    COC(=O)Nc1nc2ccc(C(=O)c3cccs3)cc2[nH]1        inactive
5  CS(=O)(=O)Nc1ccc([N+](=O)[O-])cc1Oc1ccccc1        inactive
6  O=C(c1ccc(OCCN2CCCCC2)cc1)c1c(-c2ccc(O)cc2)sc2cc(O)ccc12        inactive
7  CS(=O)(=O)CCNCc1ccc(-c2ccc3ncnc(Nc4ccc(OCc5cccc(F)c5)c(Cl)c4)c3c2)o1          active
8  CC(CCc1ccc(O)cc1)NCCc1ccc(O)c(O)c1 (stereo not given)        inactive
9  O=C1c2c(O)ccc(O)c2C(=O)c2c(NCCNCCO)ccc(NCCNCCO)c21          active

###

# Assay explanation: qHTS profiling for inhibitors of Plasmodium falciparum proliferation (AID 504749); note: nearly all actives have a fitted effect of over 60% in size
# Setup conditions: P. falciparum in erythrocytes, SYBR Green DNA, 72 h; at 28.7 µM (top of the series); parasite line B
Results filed as inconclusive are left out.
Classify as follows. Reported activity, negative = inhibition greater than or equal to 10%: Y. Reported activity, negative = inhibition below: N.

>>> df
                                   molecule  assigned_label
0                  Clc1ccc2nsnc2c1NC1=NCCN1               N
1  COc1ccccc1N1CCN(CC(O)COc2cccc3ccccc23)CC1 (centres undefined)               N
2                Cn1c(=O)c2[nH]cnc2n(C)c1=O               N
3  CC(CCc1ccc(O)cc1)NCCc1ccc(O)c(O)c1 (centres undefined)               N
4        NS(=O)(=O)c1cc2c(cc1Cl)NCNS2(=O)=O               Y
5                     NC12CC3CC(CC(C3)C1)C2               Y
6                             NCCc1cnc[nH]1               Y
7                                  NC(=O)NO               Y

###

# Assay explanation: Quantitative High-Throughput drug screen in 47 multiple myeloma cell lines against the NCATS MIPE library collection: ARP1_JJKsccF8 cell viability assay (AID 1918928; note: nearly all actives have a fitted effect of over 40% in size)
# Setup conditions: ARP1 myeloma cells viability, CellTiter-Glo ATP, 48 h; series mostly up to 45.8 µM
Results filed as inconclusive are left out. Active and inactive are the calls of the source. Calls come from the whole dose curve; as a rule, active = well fitted cell-killing curve with a large enough effect; inconclusive = small, poorly fitted or top-dose-only effect, or effect the other way; inactive = no such curve, though single readings can be large or run the other way.
Labels: active, inactive

                                    compound  assigned_label
 0               CC12CC3CC(C)(C1)CC(N)(C3)C2        inactive
 1  CC1COc2c(N3CCN(C)CC3)c(F)cc3c(=O)c(C(=O)O)cn1c23 (centres undefined)        inactive
 2  CN1C2CCC1CC(OC(=O)C(CO)c1ccccc1)C2 (centres undefined)        inactive
 3  CC1(CN2CCC(n3c(=O)[nH]c4ccccc43)CC2)OCc2ccccc2-n2cccc21 (centres undefined)        inactive
 4    CCC1(C)CC(=O)NC1=O (centres undefined)        inactive
 5  Cc1ccc(-c2cc(C(F)(F)F)nn2-c2ccc(S(N)(=O)=O)cc2)cc1        inactive
 6  COc1cc2nc(N3CCN(C(=O)c4ccco4)CC3)nc(N)c2cc1OC          active
 7                COc1nc(C)nc(Cl)c1NC1=NCCN1        inactive
 8  OCCN1CCN(CCCN2c3ccccc3Sc3ccc(C(F)(F)F)cc32)CC1          active
 9  CC1(C)O[C@H]2CC(=O)OC[C@]23[C@H]2CC[C@@]4(C)[C@H](c5ccoc5)OC(=O)[C@H]5O[C@]54[C@]2(C)C(=O)C[C@@H]13        inactive
10           CNCCCC12CCC(c3ccccc31)c1ccccc12          active
11  CC(COc1ccccc1)N(CCCl)Cc1ccccc1 (centres undefined)        inactive
12  O=C(c1ccc(F)cc1)C1CCN(CCn2c(=O)[nH]c3ccccc3c2=O)CC1        inactive
13     CC(=O)OCC(CCn1cnc2cnc(N)nc21)COC(C)=O        inactive
